Catalogue of apparent KD of MS2 coat protein readings, one per entry.
Tested on: MS2 coat protein
assay comment: apparent KD of MS2 coat protein; designed switch direction (-1 OFF switch, 1 ON switch): -1; higher = weaker reporter binding
setup conditions: input ligand: none

{"macromolecule sequence": "GAGUUAGCGUGAGGAAUAUACAUGAGGAUCACCCAUGUUAGCUUAUAUAUUGCUCGUCUUAUAACAACAAUUAACUG [Mod JX-Electric-eye2] (Eterna round: R97, puzzle: Sensor, turn-off variant 1)", "apparent KD of MS2 coat protein": "27.2 nM"}
{"macromolecule sequence": "ACAAGAUCGGAAGGAUAUUGUACAUGAGGAUCACCCAUGUAAUAAAUGAGGAUCACGGAUGUAGACAAGAAGGUCCGGAUAAGA [Ostracism 4 - Jieux - Exclusion NG 2] (Eterna round: R96, puzzle: Exclusion NG 2)", "apparent KD of MS2 coat protein": "36.2 nM"}
{"macromolecule sequence": "CUAUAGUCAGGAUAUCUAAACAGGCCGAGCGUUCGCAGUCGAGAGAAGGGACAUGAGGAUCACCCAUGUCCUCC [Eternabot (L1) Solution 6] (Eterna round: R97, puzzle: Exclusion 4)", "apparent KD of MS2 coat protein": "15.6 nM"}
{"macromolecule sequence": "ACUUACCAUGUCAGGAUAUGUACUUAGAACGCGAUGCAGAAGGGACAUGAGGAUCACCCAUGUAAUGUCUGAUA [Eternabot (L2) Solution 2] (Eterna round: R97, puzzle: Brourd's mod of Exclusion 4)", "apparent KD of MS2 coat protein": "21.1 nM"}
{"macromolecule sequence": "UAUUUAAUUAACAAGCUUUACAUGAGGAUCACCCAUGUGAUCAUGCUCGUCUUAGGUACAGGCUUCGGCCUGUACCA [Stov1/6-B2] (Eterna round: R97, puzzle: Sensor, turn-off variant 1)", "apparent KD of MS2 coat protein": "55.9 nM"}
{"macromolecule sequence": "ACAUGUUAUGUAGGAUAUUGGACACAUGAGGAUCACCCAUGUACCCGGAGGCUUUACUAUGAGUUCGAGAAGGGUAUGAACAUG [Ex NG2 #68] (Eterna round: R96, puzzle: Exclusion NG 2)", "apparent KD of MS2 coat protein": "29.4 nM"}
{"macromolecule sequence": "AGGUGUUUCGUAGGAUAUGAGGAUCACCCAUAGAAGGAUAUCGAAAGAGAAGGUCUGAGGAUUACCCAGAAGGACGGGACGUCA [pwkr exNG2 2xF5 2xFMN.10] (Eterna round: R96, puzzle: Exclusion NG 2)", "apparent KD of MS2 coat protein": "145 nM"}
{"macromolecule sequence": "CGCAACACAUGAGGAUCAAACAUGAGGAUCACCCAUGUAAAACAAGCUUUUUGCUCGUCUUAUAAAUAUGUGUUGCG [Electric Eye 1 - Jieux - Sensor, turn-off variant 1] (Eterna round: R97, puzzle: Sensor, turn-off variant 1)", "apparent KD of MS2 coat protein": "21 nM"}
{"macromolecule sequence": "GCUAGUCAUGUCAGGAUAUGCUGUUCCUUGGAACAGCAGAAGGGACAUGAGGAUCACCCAUGUGCCUAACUAGC [Mat - Exclusion 4 - JL Mod - D12] (Eterna round: R97, puzzle: Brourd's mod of Exclusion 4)", "apparent KD of MS2 coat protein": "43.8 nM"}

---

Tested on: MS2 coat protein
assay comment: apparent KD of MS2 coat protein; designed switch direction (-1 OFF switch, 1 ON switch): -1; higher = weaker reporter binding
setup conditions: Eterna round: R95; input ligand: none
// label = rule met if apparent KD of MS2 coat protein is not less than 100 nM, otherwise rule not met

{"macromolecule sequence": "UUUUAACAUGAGGAUCACCCAUGUAAGGAUAUGCUAUUUUUUUUUUUUUUUUUUUUUUGCAGAAGGUACAUUUU [My solution] (puzzle: Exclusion 1)", "tested target": "MS2 coat protein", "class label": "rule not met"}
{"macromolecule sequence": "ACAAGCUUUUUGUUCGUCUUAUAAUAAUAAAUAAAGAUAACAUGAGGAUCACCCAUGUAAAGAAGACGGCCUCAUGU [Sesor Array 20 - Jieux - Sensor v3, turn-off variant 2] (puzzle: Sensor v3, turn-off variant 2)", "tested target": "MS2 coat protein", "class label": "rule met"}
{"macromolecule sequence": "GAUUAUGCGAGCUUUAGGGACAUGAGGAUCACCCAUGUUCGUCUUAUUAGUCUGGGUACACUAACAUACCUAAAUCU [JMF 21] (puzzle: Sensor v3, turn-off variant 1)", "tested target": "MS2 coat protein", "class label": "rule not met"}
{"macromolecule sequence": "UCAUGUUUAGAGGAUAUGAUUACUUUGGAGUAAUCAGAAGGCUAGACAUGAGGAUCACCCAUGUCAUAACAUGA [Exclusion 6 - B - 15:c] (puzzle: Exclusion 6)", "tested target": "MS2 coat protein", "class label": "rule not met"}
{"macromolecule sequence": "UUUUAGAGAGGAUAUAUAUAGUGAAACAUGAGGAUCACCCAUGUAAUUAUAUGGAUGUAAAUAGAAGGCUCAUUUA [JL-ex5-3.02] (puzzle: Exclusion 5)", "tested target": "MS2 coat protein", "class label": "rule not met"}
{"macromolecule sequence": "CAUACUCAAGUCAGGAUAUACAGUCGGAUACGGGUGUAGAAGGGACAUGAGGAUCACCCAUGUAGAGAGUAAAG [EX-4 Malc #23] (puzzle: Brourd's mod of Exclusion 4)", "tested target": "MS2 coat protein", "class label": "rule not met"}
{"macromolecule sequence": "AGAUGUAGAUACCGAUCCUACAUGAGGAUCACCCAUGUAGCUAGACGUGCUCGCGUCGCUCGUCAGACUACCAGUAG [salish99_TOv1_r3_089] (puzzle: Sensor v3, turn-off variant 1)", "tested target": "MS2 coat protein", "class label": "rule met"}
{"macromolecule sequence": "GUGGUGACAGGAUAUACAUGAGGAUCACCCAUGUGAGGAGGACGAGACAGGUGAAGGAGUAGAAGGGUCAGAGA [JR_Exclu3_Sub026] (puzzle: Exclusion 3)", "tested target": "MS2 coat protein", "class label": "rule not met"}
{"macromolecule sequence": "GAGAACGUAGGAUAUACAUGAGGAUCACCCAUGUGAGGAAGGAGUAGGAAGAGUGGAAGUAGAAGGACGGAGAG [JR_Exclu3_Sub072] (puzzle: Exclusion 3)", "tested target": "MS2 coat protein", "class label": "rule not met"}
{"macromolecule sequence": "UUACUAUGCCGCCUAAUAGCUUUUUGCUCGUCUUAUAUUACAUGAGGAUCACCCAUGUAGAUCAUGUGGCGUGACCU [JL ViennaUCT Maridi mod 3] (puzzle: Sensor v3, turn-off variant 2)", "tested target": "MS2 coat protein", "class label": "rule met"}

---

System: K4 kissing-loop RNA reporter;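 note: bound reporter read as fluorescence of individual clusters on recovered sequencing chips by microscopy, with normalized cluster intensities fitted with a binding model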
assay comment: apparent KD of K4 kissing-loop reporter; higher = weaker reporter binding
setup conditions: Eterna round: R107; input ligand: arginine 13.2 mM

{"macromolecule sequence": "GGUUUUAACCGCAGUGAUGUUGCGUUGAAACGAGGACCGGUACGGCCGCCACUCGAAAAGAAGCGGCCAAAUUAAAAUCGUAAAG [Exclusion Tryptophan A GF 23]", "apparent KD of K4 kissing-loop reporter (nM)": 162}
{"macromolecule sequence": "GAUUUAGAGGCGGCCGCCACUAGUGAUGUUAGUGAUGUUUGAUACUGUAUAUAUCGGCGUGUAGAUAGGACCGGGCCAGAUGGAG [tbqqmullin]", "apparent KD of K4 kissing-loop reporter (nM)": 157}
{"macromolecule sequence": "GCGGCCCAGCCGGAUACCAGUGACCCGCUGGGAACCGCGGGCCCAGAGUGAUGUUCGGGACACCCUUGGCAGCCGCCUGGGACGC [#2 Same State - Theophylline B Attempt #17 (HarryS)]", "apparent KD of K4 kissing-loop reporter (nM)": 126}
{"macromolecule sequence": "UGACUUGCCUGAGGAUAUCUAGGAUAUGGAUAAAAUAAAAUAAUAAUGGAGUGAUGUUCCAGAAGGAGAGAAGGCAGGUAAGUCU [KL-XFMN-B16 #DoubleAptamer #SwitchBubble]", "apparent KD of K4 kissing-loop reporter (nM)": 116}
{"macromolecule sequence": "AAAACUAUCAGAAGGAGCGUGGAAUAUUCAUCUGUAUCUAAUACGAGUGAUGUUCGUAAUUCACAGGUAGGUCGCUGAUCAAUAA [whbob_Ex_Arginine_B_2th155]", "apparent KD of K4 kissing-loop reporter (nM)": 226}

---

Tested on: MS2 coat protein
assay comment: apparent KD of MS2 coat protein; designed switch direction (-1 OFF switch, 1 ON switch): -1; higher = weaker reporter binding
setup conditions: input ligand: none
measured attribute: apparent KD of MS2 coat protein (nM)

{"macromolecule sequence": "CUAGCGAUUGUAGGAUAUCGGACUGUUUCAGUCUGAGAAGGACAUGAGGAUCACCCAUGUGAAGCAACGUGAGUUGCACGCUAG [JL ENG1 3.83] (Eterna round: R96, puzzle: Exclusion NG 1)", "result value": 22}
{"macromolecule sequence": "CACCGUUACAGAGGAUAUGACACAUGAGGAUCACCCAUGUAAUAAAUGAGAAUUUCGAAUGUACCUCAGAAGGCUGGAACCGGC [Ostricism 78 - Jieux - Exclusion NG 2] (Eterna round: R96, puzzle: Exclusion NG 2)", "result value": 38.7}
{"macromolecule sequence": "CAGUACUGAGGAUAUACAUGAGGAUCACCCAUGUGUUUUCUACUAGGAAACUAGGUAUGUAGAAGGCAGUACUG [Omei Ex3 Mod of Eli 4.27 v3] (Eterna round: R97, puzzle: Exclusion 3)", "result value": 22.9}
{"macromolecule sequence": "ACAUGAGGAUCACCCAUGUACACGUAAUGGCUCAUGUAGAGUGAGGAUAUGUGAGACGAACGAGAACAGAAGGCACAAGACAGG [Deportation 9 - Jieux - Exclusion NG 3] (Eterna round: R96, puzzle: Exclusion NG 3)", "result value": 35.9}
